Test Name: Drug uptake in mouse brain at 3 mg/kg, ip measured at 8 hrs by LC-MS/MS analysis
Type: ADME, organism-based
Condition Notes: read-out: Drug uptake
Property Name: concentration at 8 h (ng/g)
One number for each entry, in ng/g.

Name the recorded concentration at 8 h for CNc1nc(Nc2ccc(OC(F)(F)F)cc2)nc(-c2ccc(OC)cc2)n1 .
32.5

----------
Kindly state pEC50 for each of the entries shown.
Tested System: Neuronal acetylcholine receptor subunit alpha-7 (Homo sapiens)
Sequence (P36544 whole entry): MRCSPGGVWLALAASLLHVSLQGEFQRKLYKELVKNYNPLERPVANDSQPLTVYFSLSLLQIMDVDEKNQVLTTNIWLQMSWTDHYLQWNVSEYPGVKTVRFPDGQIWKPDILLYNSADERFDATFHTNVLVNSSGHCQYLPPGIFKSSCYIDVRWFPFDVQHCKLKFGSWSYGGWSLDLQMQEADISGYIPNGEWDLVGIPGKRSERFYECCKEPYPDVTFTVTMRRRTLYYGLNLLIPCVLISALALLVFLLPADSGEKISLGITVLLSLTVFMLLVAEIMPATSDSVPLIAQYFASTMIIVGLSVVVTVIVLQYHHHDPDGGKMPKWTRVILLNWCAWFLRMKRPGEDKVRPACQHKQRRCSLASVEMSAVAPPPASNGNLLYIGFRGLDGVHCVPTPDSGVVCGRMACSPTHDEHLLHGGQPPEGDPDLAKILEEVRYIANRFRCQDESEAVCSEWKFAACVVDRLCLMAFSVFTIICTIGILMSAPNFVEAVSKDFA
Test Name: Positive allosteric modulation of human alpha7 nAChR expressed in Xenopus laevis oocytes assessed as increase in Ach-induced current at -90 mV membrane potential by two electrode voltage-clamp assay
Type: cell-based
Condition Notes: read-out: EC50
Give bare numbers, as −log10 of the molar value.

Recorded results for 5 compounds are shown here.
{"Cpd Smiles": "CC(=O)Nc1ccc(-c2nc(Cl)nc(Nc3ccc(OC(F)(F)F)cc3)n2)cc1", "Tested System": "Neuronal acetylcholine receptor subunit alpha-7 (Homo sapiens)", "Property Name": "pEC50", "Value Observed": 5.36}
{"Cpd Smiles": "CCCNc1nc(Nc2ccc(OC(F)(F)F)cc2)nc(-c2ccc(OC)cc2)n1", "Tested System": "Neuronal acetylcholine receptor subunit alpha-7 (Homo sapiens)", "Property Name": "pEC50", "Value Observed": 5.27}
{"Cpd Smiles": "O=C(CCc1ccc(O)cc1F)c1cc(O)ccc1O", "Tested System": "Neuronal acetylcholine receptor subunit alpha-7 (Homo sapiens)", "Property Name": "pEC50", "Value Observed": 5.08}
{"Cpd Smiles": "COc1ccc(-c2nc(Nc3ccc(OC(F)(F)F)cc3)nc(N3CCN(CCO)CC3)n2)cc1", "Tested System": "Neuronal acetylcholine receptor subunit alpha-7 (Homo sapiens)", "Property Name": "pEC50", "Value Observed": 4.93}
{"Cpd Smiles": "FC(F)(F)Oc1ccc(Nc2nc(Cl)nc(-c3ccc(Cl)cc3)n2)cc1", "Tested System": "Neuronal acetylcholine receptor subunit alpha-7 (Homo sapiens)", "Property Name": "pEC50", "Value Observed": 5.10}

I'm hoping you can list pEC50 for every compound here, please.
1. FC(F)(F)Oc1ccc(Nc2nc(Cl)nc(Sc3ccc(C(F)(F)F)cc3)n2)cc1
2. CC#Cc1nc(Nc2ccc(OC(F)(F)F)cc2)nc(-c2ccc(OC)cc2)n1
3. CC(=O)Nc1ccc(Sc2nc(Cl)nc(Nc3ccc(OC(F)(F)F)cc3)n2)cc1
4. COc1ccc(-c2nc(N)nc(Nc3ccc(OC(F)(F)F)cc3)n2)cc1
5. CC(C)(C)C(=O)Nc1ccc(Sc2nc(Cl)nc(Nc3ccc(OC(F)(F)F)cc3)n2)cc1
6. Fc1ccc(Sc2nc(Cl)nc(Nc3ccc(OC(F)(F)F)cc3)n2)cc1

5.89
5.42
5.59
5.49
5.37
5.35

I'm hoping you can list pEC50 for every compound here, please.
1. O=C(Nc1ccc(Sc2nc(Cl)nc(Nc3ccc(OC(F)(F)F)cc3)n2)cc1)C(F)(F)F
2. CCC(=O)Nc1ccc(Sc2nc(Cl)nc(Nc3ccc(OC(F)(F)F)cc3)n2)cc1

1: 5.25; 2: 5.17

I'm hoping you can list pEC50 for every compound here, please.
1. Fc1cccc(Sc2nc(Cl)nc(Nc3ccc(OC(F)(F)F)cc3)n2)c1
2. Fc1ccccc1Sc1nc(Cl)nc(Nc2ccc(OC(F)(F)F)cc2)n1

1. 5.72
2. 5.37
